The values you see were collected from ChEMBL document CHEMBL5724801.

test system: Fibroblast; assay: Multiplex assay against human fibroblast; type: toxicity, cell-based; conditions: 12 h, 1 µM, compound concentration 1 uM
Exercise: state measured Population Hoechst High Intensity Objects (%) for each of the molecules provided.

Q: // lookup Population Hoechst High Intensity Objects (%) | system=Fibroblast | key= `Cc1cc(Nc2ncc(Cl)c(Nc3ccccc3S(=O)(=O)C(C)C)n2)c(OC(C)C)cc1C1CCNCC1`
A: 0%

Q: Param readout = Population Hoechst High Intensity Objects (%); param system = Fibroblast; param query = O=C1CSC(=O)N1C(CCc1ccncc1)COc1ccc(-c2cccc([N+](=O)[O-])c2)cc1 (centres undefined) ; response: value
A: 0%

Q: Form field: Population Hoechst High Intensity Objects (%) recorded for `Cl.O=S(=O)(c1cccc2c(I)cccc12)N1CCCNCC1` with Fibroblast (enter value)
A: 0%

Q: Please tell me: Population Hoechst High Intensity Objects (%) of `CC(C)(O)c1cnc(N2C[C@@]3(CCC[C@](C)(Cn4cnc5ccc(C#N)cc54)C3)OC2=O)cn1` , system Fibroblast?
A: 0%

Q: Could you share what Population Hoechst High Intensity Objects (%) was measured for `Cc1c(Cc2ccc3ccccc3n2)c2cc(F)ccc2n1CC(=O)O` , tested on Fibroblast?
A: 5%

Q: Which Population Hoechst High Intensity Objects (%) is reported with Fibroblast for this entry: `CN(C)C(=O)Cn1cc(-c2ccc(-c3nnc4ccccn34)cc2)cn1` ?
A: 5%

Q: Hello, I am looking for reported Population Hoechst High Intensity Objects (%) with Fibroblast for `O=C(NCc1cccc(O)c1)Nc1nc(-c2ccncc2)cs1` . Could you help?
A: 0%

Q: # query: Population Hoechst High Intensity Objects (%) | item `CN(C)CCCn1cc(C2=C(c3c[nH]c4ccccc34)C(=O)NC2=O)c2ccccc21` | system: Fibroblast
A: 0%

Q: Any idea what Population Hoechst High Intensity Objects (%) came out for `CN1CCN(c2ccc(Nc3c4ccccc4nc4ccccc34)cc2)CC1.Cl.Cl.O` on Fibroblast?
A: 1%
